The reported numbers originate from the supplement of paper PMC7877785.

Measured self-splicing fitness (ln) accompanies every entry in the list below.
experiment: self-splicing fitness, log relative to wild type (ln ratio); higher = more splicing; Tetrahymena group I intron in knt gene, E. coli kanamycin selection, DiMSum; sequences stand for … in CUCUCU…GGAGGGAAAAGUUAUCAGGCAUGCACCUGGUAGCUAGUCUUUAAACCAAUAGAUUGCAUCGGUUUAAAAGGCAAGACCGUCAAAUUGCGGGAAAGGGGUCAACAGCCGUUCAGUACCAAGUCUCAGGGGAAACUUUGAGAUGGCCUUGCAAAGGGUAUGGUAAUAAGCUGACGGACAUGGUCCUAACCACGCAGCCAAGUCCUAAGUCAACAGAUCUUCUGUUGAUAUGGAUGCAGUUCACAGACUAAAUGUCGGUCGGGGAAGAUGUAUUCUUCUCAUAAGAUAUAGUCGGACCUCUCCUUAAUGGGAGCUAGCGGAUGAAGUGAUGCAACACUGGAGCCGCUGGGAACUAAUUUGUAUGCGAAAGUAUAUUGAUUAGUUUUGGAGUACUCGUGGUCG; conditions: 30 °C;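 further: selection with 25 µg/mL kanamycin versus none on LB agar overnight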

chain: GUAGAGCAAUAUUACGUAAU
self-splicing fitness (ln): -2.04

chain: CCGUAGCAAUAUUACGAUGA
self-splicing fitness (ln): -1.48

chain: CACCAGCAAUAUUACGAUCU
self-splicing fitness (ln): -4.3

chain: CAUUAGCAAUAUUACGCGUG
self-splicing fitness (ln): -3.16

chain: AUGUAGCAAUAUUACGAACG
self-splicing fitness (ln): -1.27

chain: AACAAGCAAUAUUACGUAAG
self-splicing fitness (ln): -1.93
